# measured on: Stearoyl-CoA desaturase (Homo sapiens) (UniProt O00767)
# Sequence (whole entry): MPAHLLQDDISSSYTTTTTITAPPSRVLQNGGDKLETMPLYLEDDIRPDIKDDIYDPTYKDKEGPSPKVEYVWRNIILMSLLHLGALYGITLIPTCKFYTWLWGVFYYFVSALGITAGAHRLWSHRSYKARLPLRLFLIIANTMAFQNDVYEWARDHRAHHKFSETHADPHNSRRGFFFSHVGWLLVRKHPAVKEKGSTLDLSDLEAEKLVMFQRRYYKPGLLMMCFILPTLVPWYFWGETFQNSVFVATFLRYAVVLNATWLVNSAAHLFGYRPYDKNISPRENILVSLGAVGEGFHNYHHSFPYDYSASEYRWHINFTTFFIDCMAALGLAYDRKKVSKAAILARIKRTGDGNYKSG
# assay: Inhibition of SCD1 in human HepG2 cells assessed as decrease in 18:1/18:0 desaturase index after 72 hrs by gas chromatographic analysis
# Format: cell-based
outcome measure: inhibition

- compound: "O=c1[nH]c(-c2ccc(CN3CCOCC3)cc2)nc2sc3c(c12)CCC(CO)C3 (stereo unspecified)"
  inhibition: "Dose-dependent effect"
- compound: "NC(=O)c1c(NC(=O)c2ccc(CN3CCCCC3)cc2)sc2c1CCC(CO)C2 (stereo unspecified)"
  inhibition: "Dose-dependent effect"
- compound: "NC(=O)c1c(NC(=O)c2ccc(CN3CCS(=O)(=O)CC3)cc2)sc2c1CCC(CO)C2 (stereo unspecified)"
  inhibition: "Dose-dependent effect"
- compound: "CN(C)Cc1ccc(C(=O)Nc2sc3c(c2C(N)=O)CCC(CO)C3)cc1 (stereo unspecified)"
  inhibition: "Dose-dependent effect"

Asked: Complete the entry with inhibition for Cc1nnc(-c2ccc(N3CCC(Oc4cc(F)ccc4Cl)CC3)nn2)o1
Given back: Dose-dependent effect

Asked: Give inhibition for the following compound: NC(=O)c1c(NC(=O)c2ccc(CN3CCOCC3)cc2)sc2c1CCC(CO)C2 (stereo unspecified)
Given back: Dose-dependent effect

====

# measured on: Stearoyl-CoA desaturase (Homo sapiens)
# Sequence (whole entry): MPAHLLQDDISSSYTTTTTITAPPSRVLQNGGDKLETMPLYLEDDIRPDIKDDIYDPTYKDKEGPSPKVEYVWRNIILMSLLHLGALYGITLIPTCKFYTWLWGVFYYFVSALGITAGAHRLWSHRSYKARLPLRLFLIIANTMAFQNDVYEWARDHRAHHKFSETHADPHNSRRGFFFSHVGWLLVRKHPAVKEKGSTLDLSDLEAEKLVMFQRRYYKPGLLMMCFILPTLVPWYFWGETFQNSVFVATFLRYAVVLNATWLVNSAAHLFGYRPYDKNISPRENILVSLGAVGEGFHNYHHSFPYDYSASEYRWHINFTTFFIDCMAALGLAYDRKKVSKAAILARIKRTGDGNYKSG
# assay: Inhibition of SCD1 in human HepG2 cells assessed as increase in cellular elongase index at 10 uM after 72 hrs by gas chromatographic analysis
# Format: cell-based
Activity calls are given as the source filed them. The rule behind the calls is not given here.
Returns: one label drawn from active, inactive

Here's what some known entries look like.
- molecule: "Cc1nnc(-c2ccc(N3CCC(Oc4cc(F)ccc4Cl)CC3)nn2)o1"
  qualitative label: "active"
- molecule: "NC(=O)c1c(NC(=O)c2ccc(CN3CCOCC3)cc2)sc2c1CCC(c1ccc(O)cc1)C2 (stereo not drawn)"
  qualitative label: "inactive"
- molecule: "NC(=O)c1c(NC(=O)c2ccc(CN3CCOCC3)cc2)sc2c1CCC(CO)C2 (stereo not drawn)"
  qualitative label: "active"
- molecule: "NC(=O)c1c(NC(=O)c2ccc(CN3CCS(=O)(=O)CC3)cc2)sc2c1CCC(CO)C2 (stereo not drawn)"
  qualitative label: "active"
- molecule: "NC(=O)c1c(NC(=O)c2ccc(CN3CCOCC3)cc2)sc2c1CCC(C(=O)O)C2 (stereo not drawn)"
  qualitative label: "inactive"
- molecule: "O=c1[nH]c(-c2ccc(CN3CCOCC3)cc2)nc2sc3c(c12)CCC(CO)C3 (stereo not drawn)"
  qualitative label: "active"
- molecule: "NC(=O)c1c(NC(=O)c2ccc(CN3CCCCC3)cc2)sc2c1CCC(CO)C2 (stereo not drawn)"
  qualitative label: "active"

Turning now to a further molecule:
Asked: Kindly provide the recorded test outcome for the following molecule: CN(C)Cc1ccc(C(=O)Nc2sc3c(c2C(N)=O)CCC(CO)C3)cc1 (stereo not drawn)
Given back: active

Source of measurements: ChEMBL document CHEMBL4043175
